Source of measurements: patent US20090298167A1

Target: human IL-21R expressed on cells (human, UniProt Q9HBE5 20-538)
Sequence (Q9HBE5 20-538 limits assumed): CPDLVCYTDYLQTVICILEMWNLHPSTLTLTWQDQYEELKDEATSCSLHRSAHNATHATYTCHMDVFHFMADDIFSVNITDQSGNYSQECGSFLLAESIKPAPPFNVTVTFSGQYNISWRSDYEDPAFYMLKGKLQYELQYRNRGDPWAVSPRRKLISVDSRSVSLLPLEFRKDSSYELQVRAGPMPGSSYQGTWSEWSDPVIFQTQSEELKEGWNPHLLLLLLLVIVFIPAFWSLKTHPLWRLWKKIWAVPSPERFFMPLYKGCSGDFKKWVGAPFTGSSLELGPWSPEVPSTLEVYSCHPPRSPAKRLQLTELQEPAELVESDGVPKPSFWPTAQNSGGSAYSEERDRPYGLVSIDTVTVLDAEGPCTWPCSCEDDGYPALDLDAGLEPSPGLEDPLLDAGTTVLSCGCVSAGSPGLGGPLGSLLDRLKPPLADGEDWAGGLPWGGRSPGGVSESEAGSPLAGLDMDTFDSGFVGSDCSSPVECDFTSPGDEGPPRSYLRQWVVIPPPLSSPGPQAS
Assay: cell-based or functional assay
quantity_kind: Human IL-21R-BaF3 Proliferation IC50 (nM)
A number alone suffices; assume nM.

Worked examples follow.
1. AbL (antibody, human IgG1, V domains shown, Full-length human IgG1 / human lambda, transient, conditioned medium; Framework limits derived; also called VH3/VL13) VH: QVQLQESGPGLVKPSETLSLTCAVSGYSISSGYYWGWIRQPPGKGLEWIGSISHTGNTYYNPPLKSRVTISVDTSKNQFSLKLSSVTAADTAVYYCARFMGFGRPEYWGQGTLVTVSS VL: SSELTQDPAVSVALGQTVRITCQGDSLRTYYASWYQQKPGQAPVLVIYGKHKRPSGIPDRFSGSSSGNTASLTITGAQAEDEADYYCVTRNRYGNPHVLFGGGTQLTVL: 0.68
2. AbS (antibody, human IgG1, V domains shown, Human IgG1 triple-mutant (L234A, L235A, G237A); Framework limits derived; also called VHP/VL6; VHPTM/VL6) VH: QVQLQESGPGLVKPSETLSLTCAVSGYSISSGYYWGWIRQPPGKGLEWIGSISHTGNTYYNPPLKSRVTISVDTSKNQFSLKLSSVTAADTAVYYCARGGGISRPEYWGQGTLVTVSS VL: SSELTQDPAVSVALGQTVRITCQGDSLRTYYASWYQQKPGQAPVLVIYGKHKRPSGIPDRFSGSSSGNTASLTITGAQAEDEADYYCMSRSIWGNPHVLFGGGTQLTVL: 1.53

Now examine the next entry.
Given the entry AbO (antibody, human IgG1, V domains shown, Human IgG1 triple-mutant (L234A, L235A, G237A); Framework limits derived; also called VHP/VL16; VHPTM/VL16) VH: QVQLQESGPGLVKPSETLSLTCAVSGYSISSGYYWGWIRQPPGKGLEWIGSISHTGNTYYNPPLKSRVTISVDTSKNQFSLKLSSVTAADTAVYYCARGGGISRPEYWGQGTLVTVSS VL: SSELTQDPAVSVALGQTVRITCQGDSLRTYYASWYQQKPGQAPVLVIYGKHKRPSGIPDRFSGSSSGNTASLTITGAQAEDEADYYCVTRSAKGNPHVLFGGGTQLTVL , report its measured Human IL-21R-BaF3 Proliferation IC50. 0.52
